System: NCI-H358 cells (Kras G12C mutation)
Experiment: Cell proliferation inhibition experiment, 3D model, CellTiter-Glo (NCI-H358)
Format: cell-based, human
Settings: Homo sapiens, NCI-H358, 120 h, NCI-H358, 3D sphere plate, 5 days, 2% FBS
Class assignment keyed on IC50, ranges group 1: < 4 nM; group 2: ≥ 4 nM and < 20 nM; group 3: ≥ 20 nM

Some entries whose results are on file:
Compound	Assayed system	Category label
C=CC(=O)N1CCN2c3nc(=O)n(-c4c(C)ccnc4C(C)C)c4nc(-c5ccc(Cl)cc5F)c(Cl)c(c34)OC[C@@H]2C1 [Compound Z65]	NCI-H358 cells (Kras G12C mutation)	group 2
C=CC(=O)N1CCN2c3nc(=O)n(-c4c(C)ccnc4C(C)C)c4cc(-c5c(O)cccc5F)c(Cl)c(c34)OC[C@@H]2C1 [Compound Z31]	NCI-H358 cells (Kras G12C mutation)	group 3
C=CC(=O)N1CCN2c3nc(=O)n(-c4c(C)ccnc4C(C)C)c4nc(-c5cccc(F)c5)c(Cl)c(c34)OC[C@@H]2C1 [Compound Z48]	NCI-H358 cells (Kras G12C mutation)	group 3
C=CC(=O)N1CCN2c3nc(=O)n(-c4c(C#N)cnn4C(C)(C)C)c4nc(-c5c(O)cccc5F)c(Cl)c(c34)OC[C@H]2C1 [Compound Z120]	NCI-H358 cells (Kras G12C mutation)	group 2
C=CC(=O)N1CCN2c3nc(=O)n(CC4CC4)c4cc(-c5c(O)cccc5F)c(Cl)c(c34)OC[C@@H]2C1 [Compound Z37-2]	NCI-H358 cells (Kras G12C mutation)	group 3

Incoming: Hello team, could you let me know which band the following compound falls into: C=CC(=O)N1CCN2c3nc(=O)n(-c4c(C5CC5)ncnc4C4CC4)c4nc(-c5ccccc5F)c(Cl)c(c34)OC[C@H]2C1 [Compound Z93]
Outgoing: group 1

Incoming: Record C=CC(=O)N1CCN2c3nc(=O)n(-c4c(C)ccnc4C(C)C)c4nc(-c5ccccc5C(C)C)c(Cl)c(c34)OC[C@@H]2C1 [Compound Z62] — which class?
Outgoing: group 2

Incoming: Input C=CC(=O)N1CCN2c3nc(=O)n(-c4c(C)ccnc4C(C)C)c4nc(-c5c(F)cccc5Cl)c(Cl)c(c34)OC[C@@H]2C1 [Compound Z67] ; output its category
Outgoing: group 1

Incoming: Looking at C=CC(=O)N1CCN2c3nc(=O)n(-c4c(C)ccnc4C(C)C)c4nc(-c5ccncc5F)c(Cl)c(c34)OC[C@@H]2C1 [Compound Z69] , which class would you pick?
Outgoing: group 3

Incoming: Band of C=CC(=O)N1CCN2c3nc(=O)n(-c4c(C5CC5)ncnc4C4CC4)c4nc(-c5c(O)cccc5F)c(F)c(c34)OC[C@H]2C1 [Compound Z99] ?
Outgoing: group 1

Incoming: Band of C=CC(=O)N1CCN2c3nc(=O)n(-c4c(C)ccnc4C(C)C)c4nc(-c5ccc(F)cc5)c(Cl)c(c34)OC[C@@H]2C1 [Compound Z50] ?
Outgoing: group 3

Incoming: Into which bin does this compound go? C=CC(=O)N1CCN2c3nc(=O)n(-c4c(C)ccnc4C(C)C)c4nc(-c5ccccc5Cl)c(Cl)c(c34)OC[C@@H]2C1 [Compound Z58]
Outgoing: group 1

Data origin, for the record: patent US20220251109A1
